Protocol Text: NCI Yeast Anticancer Drug Screen. Data for the wt2 strain (AID 169);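 also: 0% = growth of vehicle-treated yeast cultures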
Condition Info: S. cerevisiae wt2 strain growth inhibition; at 100.0 µM; active compounds read high
Compounds without any hit were thinned out: in the full panel of roughly 79,000, 15% have a hit.

Compound	growth inhibition (%)
c1ccc2c(c1)ccn2CCc1c[nH]c2ccccc12	97
CN(C)CCCn1c2c3ccccc3ccc2c2oc(=O)c3ccccc3c21	97
CC1CCN(CCC(=O)c2ccc([N+](=O)[O-])cc2)CC1	16
CC(C)OP(=O)(OC(C)C)C(=NCCO)NNc1ccc([N+](=O)[O-])cc1	50
Cc1ccc(S(=O)(=O)N/N=C/C(Br)=C(/Br)C(=O)O)cc1	98
O=C(O)C1CCCCC1c1c2ccc(=O)cc-2oc2cc(O)ccc12 (stereo unspecified)	94
NC(=O)NC1C(c2ccccc2)=C1c1ccccc1	48
Cc1ccc([N+](=O)[O-])c2c(NCCC[N+](C)(C)[O-])c3ccccc3nc12	10
O=C1SS(=O)c2ccccc21 (stereo unspecified)	66
CCCCOc1ccc2nc(C)cc(N=[N+]=[N-])c2c1	93
O=C(O)c1c2ccc(Cl)cc2nc2[nH]c(=O)[nH]c(=O)c12	4
CCCCS/C(=C(/C#N)C(N)=O)c1cc2c([nH]1)CCCC2	98
CC1(C2CC2)C(C#N)(C#N)C1(C#N)C#N	69
CCN(CC)CCNc1ccc2ncn3c4ccc(O)cc4c(=O)c1c23	-2
COC(=O)c1cnc(Cl)c([N+](=O)[O-])c1	99
O=c1[nH]c2c([N+](=O)[O-])cccc2c2ccccc12	84
O=C1/C(=C/c2ccc(Cl)c(Cl)c2)CNC/C1=C\c1ccc(Cl)c(Cl)c1	97
Cc1ccnc2c(O)cccc12	97
OC1(c2ccccc2)C2CC=CC2C1(c1ccccc1)c1ccccc1 (stereo unspecified)	54
CCCC/C=C1\CCC(CN2CCCC2)C1=O (stereo unspecified)	74
Nc1cc2ccccc2cc1N	-28
O=C(CN(c1ccccc1)c1ccccc1)n1nnc2ccccc21	80
Cc1cc(C)c2[s+]snc2c1	30
COc1ccc(C(OCC2OC(n3cnc4c(=O)n(Cc5ccccc5[N+](=O)[O-])nnc43)C(O)C2O)(c2ccccc2)c2ccc(OC)cc2)cc1 (stereo unspecified)	6
COC(=O)C(Cl)(Cl)N=Nc1c(Cl)cc(Cl)c(C)c1Cl	99
CCCCCCNCCCNc1c2ccccc2nc2cccc([N+](=O)[O-])c12	96
O=C1C(/C=C/c2ccc(Cl)cc2)=NNC2N1N=C1NC(=O)C3(NN12)c1ccccc1-c1ccccc13 (stereo unspecified)	4
Nc1cc(Cl)ccc1Nc1ccccc1	95
CC(CC/C(=N/O)c1ccccc1)(CC/C(=N\O)c1ccccc1)[N+](=O)[O-] (stereo unspecified)	20
COC(=O)C1=C(C(=O)OC)CC(n2nnc(C(=O)OC)c2C(=O)OC)=CC1	-3
O=C(O)/C=C\C(=O)Nc1ccc2c(c1)Cc1cc(Cl)ccc1-2	11
COc1ccc(C2CC(C)(N3CCCC3)Oc3cc4c(cc32)OCO4)cc1 (stereo unspecified)	92
Nc1ccc(S(=O)(=O)Nc2nc3c(c(=O)[nH]2)CCCC3)cc1	100
COc1ccc2nc3cccc([N+](=O)[O-])c3c(NCCNCCN(C)C)c2c1	1
Cc1oc2ccccc2c(=O)c1Cn1nnc2ccccc21	32
O=[N+]([O-])c1ccc2nc(=S)[nH]n2c1	12
CC(=O)/C=C/c1cccc([N+](=O)[O-])c1	88
CCOC(=O)C(Cc1c2ccccc2cc2ccccc12)(NC(C)=O)C(=O)OCC	-2
CCCCN(CCC#N)c1ccc(/C=C/c2ccnc3ccccc23)cc1	83
COc1cc2c(cc1O)[C@H](C)C(c1ccccc1OC)O2 (stereo partly specified)	96
COc1ccc2cc(C(C)C(=O)N3CCOC3=O)ccc2c1 (stereo unspecified)	-7
